Tested on: GTPase KRas (Homo sapiens), P01116 [UNDEFINED MUTATION]
Sequence (P01116 whole entry, looked up, change not shown): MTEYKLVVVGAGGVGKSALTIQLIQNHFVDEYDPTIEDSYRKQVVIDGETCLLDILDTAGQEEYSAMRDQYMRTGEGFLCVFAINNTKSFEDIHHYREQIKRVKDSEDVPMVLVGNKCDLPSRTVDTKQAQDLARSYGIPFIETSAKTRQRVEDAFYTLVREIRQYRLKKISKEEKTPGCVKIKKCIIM
Assay: Inhibition of KRas mutant in human SW480 cells assessed as cell viability by measuring ATP at 20 uM relative to control
Type: cell-based
Kindly state inhibition for each of the entries shown.
Provide only the numeric value, understood in %.

Inquiry: Determine its reported inhibition: CCCCCc1c2c(c(C)c3c1C(=O)OC3)Oc1ccccc1O2
Reply text: 86

Inquiry: Provide inhibition value for the following compound: CCCCc1c2c(c(C)c3c1C(=O)OC3)Oc1ccccc1O2
Reply text: 138

Inquiry: Provide one value: measured inhibition of Cc1c2c(c(CCCCBr)c3c1Oc1ccccc1O3)C(=O)OC2
Reply text: 63

Inquiry: Quickly give me recorded inhibition for CCCCCc1c2c(c(C)c3c1Oc1ccccc1O3)C(=O)OC2
Reply text: 40

Inquiry: Tell me inhibition reported for CCCCCCc1c2c(c(C)c3c1C(=O)OC3)Oc1ccccc1O2
Reply text: 86

Inquiry: Please give measured inhibition of the following entry: Cc1c2c(c(CCCCBr)c3c1C(=O)OC3)Oc1ccccc1O2
Reply text: 55

Inquiry: Provide one value: measured inhibition of CCCCCCc1c2c(c(C)c3c1C(=O)SC3)Oc1ccccc1O2
Reply text: 22

Inquiry: # return recorded inhibition for input CCCCc1c2c(c(C)c3c1Oc1ccccc1O3)C(=O)OC2
Reply text: 14

Inquiry: Item CCCCCCc1c2c(c(C)c3c1Oc1ccccc1O3)C(=O)OC2 : provide inhibition
Reply text: 12

Inquiry: Tell us which inhibition value is on record for CCCCCCc1c2c(c(C)c3c1Oc1ccccc1O3)C(=O)SC2
Reply text: 21

Inquiry: # return recorded inhibition for entry CCCCCc1c2c(c(C)c3c1C(=O)OC3)Oc1ccc(OC)cc1O2
Reply text: 19
